target: PDK1 (Homo sapiens (Human)); experiment: PDK1 kinase assay (coupled PDK1/AKT/FAM-crosstide assay, IMAP fluorescence polarization); assay type: biochemical; settings: inhibition of PDK1 in vitro
Sequence (O15530 51-359): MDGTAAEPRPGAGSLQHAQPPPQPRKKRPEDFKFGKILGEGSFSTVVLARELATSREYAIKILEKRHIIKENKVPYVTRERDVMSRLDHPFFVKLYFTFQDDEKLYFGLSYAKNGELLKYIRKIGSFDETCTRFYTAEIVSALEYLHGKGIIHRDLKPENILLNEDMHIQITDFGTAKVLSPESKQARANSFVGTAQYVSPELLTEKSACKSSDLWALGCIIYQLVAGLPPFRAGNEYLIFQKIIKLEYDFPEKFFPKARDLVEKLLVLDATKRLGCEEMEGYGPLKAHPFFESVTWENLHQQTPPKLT
Consider the following molecules and their measured IC50 readings.

Solved cases below.
{"MOLECULE": "C[C@H](NC(=O)c1cc(C#N)cnc1NCc1ccc(-c2nc3c(N)ncnc3[nH]2)cc1)c1ccc(F)cc1 [Example 113]", "IC50": "< 100 nM"}
{"MOLECULE": "C[C@H](NC(=O)c1cc(C#N)cnc1NCc1ccc(-c2cnc(N)c(NCC(O)CO)n2)cc1)c1ccc(F)cc1 (stereo partly shown) [Example 243]", "IC50": "< 100 nM"}
{"MOLECULE": "C[C@H](NC(=O)c1cc(C#N)cnc1NCc1ccc(-c2cnc(NCCO)cn2)cc1)c1ccc(F)cc1 [Example 227]", "IC50": "100 to 1000 nM"}

Please look at the following molecule next.
[in] Any idea what its IC50 is? The molecule is Cn1cc(-c2ccc(CNc3ncc(C(F)(F)F)cc3C(=O)Nc3ccc(F)cc3)cn2)c2c(N)ncnc21 [Example 56]
[out] < 100 nM
